system tested: human P2X3 receptor (Homo sapiens (Human), UniProt P56373)
Sequence (P56373 whole entry): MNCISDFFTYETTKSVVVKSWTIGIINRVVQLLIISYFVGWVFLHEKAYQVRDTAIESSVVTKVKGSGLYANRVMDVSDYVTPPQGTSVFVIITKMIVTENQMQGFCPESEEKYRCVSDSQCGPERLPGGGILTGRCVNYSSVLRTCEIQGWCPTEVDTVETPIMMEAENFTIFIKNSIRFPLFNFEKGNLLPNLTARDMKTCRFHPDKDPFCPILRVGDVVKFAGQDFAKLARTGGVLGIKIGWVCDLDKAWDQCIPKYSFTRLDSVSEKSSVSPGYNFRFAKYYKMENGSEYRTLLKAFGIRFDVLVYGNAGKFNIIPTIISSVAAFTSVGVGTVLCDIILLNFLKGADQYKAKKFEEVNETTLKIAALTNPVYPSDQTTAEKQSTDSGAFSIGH
experiment: Evaluation of human P2X3 receptor inhibitory activity (Test Example 1)
particulars: C6BU-1 cell transfected with human P2X3 receptor gene, FLIPR 384
experimental readout: IC50 (nM)
Numbers only, in nM.

Exercise: Would you mind telling me what IC50 value was observed for COc1ccc(Oc2ccc(/N=c3\[nH]c(=O)n(C[C@H](C)C(=O)O)c(=O)n3Cc3ccc(C)cc3)cc2)nc1 [Compound I-229] ?
Key: 6

Exercise: Next entry: Cc1ccc(Oc2ccc(/N=c3\[nH]c(=O)n(CC(C)(C)C(=O)O)c(=O)n3Cc3ccc(Cl)cc3)cc2)nc1 [Compound I-058]
Key: 6

Exercise: Next entry: COC(=O)[C@@H](C)Cn1c(=O)[nH]/c(=N\c2ccc(Oc3cccc(F)n3)cc2)n(Cc2ccc(C)cc2)c1=O [Compound I-053]
Key: 6

Exercise: Next entry: COCc1ccc(Oc2ccc(/N=c3\[nH]c(=O)n(C[C@H](C)C(=O)OC)c(=O)n3Cc3ccc(Cl)cc3)cc2)nc1 [Compound I-247]
Key: 6

Exercise: Next entry: COC(=O)CCn1c(=O)[nH]/c(=N\c2ccc(Oc3cccc(C(C)=O)n3)cc2)n(Cc2ccc(Cl)cc2)c1=O [Compound R-302]
Key: 6

New cases:
Exercise: Would you mind telling me what IC50 value was observed for COC(=O)[C@@H](C)Cn1c(=O)[nH]/c(=N\c2ccc(Oc3ncccc3C(F)(F)F)cc2)n(Cc2ccc(Cl)cc2)c1=O [Compound I-030] ?
Key: 176

* * *

system tested: UniProtKB P56373
experiment: Evaluation of human P2X3 receptor inhibitory activity (Test Example 1)
particulars: C6BU-1 cell transfected with human P2X3 receptor gene, FLIPR 384
pIC50: −log10 of the molar value.
Decide using pIC50: a value greater than or equal to 8 is criterion met, a smaller one is criterion not met.

Worked cases, answers included:
Exercise: Tell me whether pIC50 is at least 8 here: CCOC(=O)[C@H]1C[C@H](n2c(=O)[nH]/c(=N\c3ccc(Oc4ncccc4F)cc3)n(Cc3ccc(Cl)cc3)c2=O)C1
Key: criterion not met

Exercise: Next entry: COC(=O)[C@@H](C)Cn1c(=O)[nH]/c(=N\c2ccc(Oc3ccccn3)cc2)n(CC2CC3(CCC3)C2)c1=O
Key: criterion met

New cases:
Exercise: Tell me whether pIC50 is at least 8 here: Cc1ccc(Cn2c(=O)n(C[C@H](C)C(=O)O)c(=O)[nH]/c2=N\c2ccc(Oc3ccc(OC(F)F)cn3)cc2)cc1
Key: criterion met

* * *

system tested: human P2X3 receptor (Homo sapiens (Human), UniProt P56373)
experiment: Evaluation of human P2X3 receptor inhibitory activity (Test Example 1)
particulars: C6BU-1 cell transfected with human P2X3 receptor gene, FLIPR 384
From the text: […]
experimental readout: pIC50
Answers are plain numbers, as −log10 of the molar value.

The following compounds have reported results that may help.
Exercise: Would you mind telling me what pIC50 value was observed for O=C(O)C1(Cn2c(=O)[nH]/c(=N\c3ccc(Oc4cccc(F)n4)cc3)n(Cc3ccc(Cl)cc3)c2=O)CC1 [Compound I-017] ?
Key: 8.22

Exercise: Next entry: COC(=O)C(C)(C)Cn1c(=O)[nH]/c(=N\c2ccc(Oc3ccnc(Cl)c3)cc2)n(Cc2ccc(Cl)cc2)c1=O [Compound R-087]
Key: 7.92

Exercise: Next entry: COC(=O)[C@@H](C)Cn1c(=O)[nH]/c(=N\c2ccc(Oc3cccc(OC)n3)cc2)n(Cc2ccc(C)cc2)c1=O [Compound I-221]
Key: 7.96

Exercise: Next entry: C[C@H](CC(=O)O)n1c(=O)[nH]/c(=N\c2ccc(Oc3ncccc3F)cc2)n(Cc2ccc(Cl)cc2)c1=O [Compound I-166]
Key: 7.89

Exercise: Next entry: C[C@@H](Cn1c(=O)[nH]/c(=N\c2ccc(Oc3cccc(F)n3)cc2)n(Cc2ccc(CF)cc2)c1=O)C(=O)O [Compound I-217]
Key: 7.96

Exercise: Next entry: COC(=O)C(C)(C)Cn1c(=O)[nH]/c(=N\c2ccc(Oc3ncc(C)s3)cc2)n(Cc2ccc(Cl)cc2)c1=O [Compound R-149]
Key: 7.92

Exercise: Next entry: COC(=O)[C@@H](C)Cn1c(=O)[nH]/c(=N\c2ccc(Oc3ccc(CO)cn3)cc2)n(Cc2ccc(Cl)cc2)c1=O [Compound I-083]
Key: 8.22

Exercise: Next entry: COC(=O)C[C@@H](C)n1c(=O)[nH]/c(=N\c2ccc(Oc3cccc(F)n3)cc2)n(Cc2ccc(Cl)cc2)c1=O [Compound I-158]
Key: 8.22

New cases:
Exercise: Would you mind telling me what pIC50 value was observed for COC(=O)[C@H](C)[C@H](C)n1c(=O)[nH]/c(=N\c2ccc(Oc3ccccn3)cc2)n(Cc2ccc(Cl)cc2)c1=O [Compound I-144] ?
Key: 8.05

* * *

system tested: human P2X3 receptor (Homo sapiens (Human))
experiment: Evaluation of human P2X3 receptor inhibitory activity (Test Example 1)
particulars: C6BU-1 cell transfected with human P2X3 receptor gene, FLIPR 384
experimental readout: pIC50
One number for each entry, as −log10 of the molar value.

The following molecules have reported results that may help.
Exercise: Would you mind telling me what pIC50 value was observed for CCOC(=O)CCCn1c(=O)[nH]/c(=N\c2ccc(Oc3cccc(F)n3)cc2)n(Cc2ccc(C)cc2)c1=O [Compound R-296] ?
Key: 8.30

Exercise: Next entry: COC(=O)CCn1c(=O)[nH]/c(=N\c2ccc(Oc3ccccn3)c(C)c2)n(Cc2ccc(C)cc2)c1=O [Compound R-290]
Key: 8.22

Exercise: Next entry: CC(C)(Cn1c(=O)[nH]/c(=N\c2ccc(Oc3cccc(F)n3)cc2)n(Cc2ccc(Cl)cc2)c1=O)C(=O)O [Compound I-010]
Key: 8.30

Exercise: Next entry: COC(=O)[C@@H](C)Cn1c(=O)[nH]/c(=N\c2ccc(Oc3cc(Cl)ncn3)cc2)n(Cc2ccc(Cl)cc2)c1=O [Compound R-046]
Key: 8.22

Exercise: Next entry: COC(=O)CCn1c(=O)[nH]/c(=N\c2ccc(Oc3ccccn3)c(Cl)c2)n(Cc2ccc(C)cc2)c1=O [Compound R-301]
Key: 8.30

Batch request: pIC50 for each of the following molecules.
1. C[C@@H](Oc1ccc(/N=c2\[nH]c(=O)n(CC(C)(C)C(=O)O)c(=O)n2Cc2ccc(Cl)cc2)cc1F)C(F)(F)F [Compound R-095]
2. O=c1[nH]/c(=N\c2ccc(Oc3ccccn3)cc2)n(Cc2ccc(Cl)cc2)c(=O)n1[C@H]1C[C@@H](C(=O)O)C1 [Compound I-175]

Key:
1: 7.35; 2: 8.05

Batch request: pIC50 for each of the following molecules.
1. CC(C)(C)n1c(=O)[nH]/c(=N\c2ccc(Oc3ccc(-c4cccc(C(=O)O)c4)cn3)cc2)n(Cc2ccc(Cl)cc2)c1=O [Compound R-001]
2. C[C@@H](Cn1c(=O)[nH]/c(=N\c2ccc(Oc3nc4ncccc4o3)cc2)n(Cc2ccc(Cl)cc2)c1=O)C(=O)O [Compound R-204]
3. COC(=O)CCn1c(=O)[nH]/c(=N\c2ccc(Oc3ccc(C(C)O)cn3)cc2)n(Cc2ccc(Cl)cc2)c1=O (stereo not drawn) [Compound R-304]
4. CCOC(=O)C[C@H](O)Cn1c(=O)[nH]/c(=N\c2ccc(OC(C)C)c(Cl)c2)n(Cc2ccc(Cl)cc2)c1=O [Compound R-171]
5. CC(C)(Cn1c(=O)[nH]/c(=N\c2ccc(Oc3cccnn3)c(F)c2)n(Cc2ccc(Cl)cc2)c1=O)C(=O)O [Compound R-038]
6. COC(=O)[C@@H](C)Cn1c(=O)[nH]/c(=N\c2ccc(Oc3ncccc3OC)cc2)n(Cc2ccc(Cl)cc2)c1=O [Compound I-153]

Key:
1: 8.15; 2: 8.10; 3: 8.40; 4: 7.48; 5: 8.15; 6: 7.89

Batch request: pIC50 for each of the following molecules.
1. O=c1[nH]c(=O)n(Cc2ccc(Cl)cc2)/c(=N/c2ccc(Oc3ccc(F)cn3)cc2)[nH]1 [Compound R-170]
2. C[C@H](CC(=O)O)n1c(=O)[nH]/c(=N\c2ccc(Oc3ccc(F)cn3)cc2)n(Cc2ccc(Cl)cc2)c1=O [Compound I-165]

Key:
6.71
7.82

* * *

Would you kindly list pIC50 for each of these compounds?
system tested: human P2X3 receptor (Homo sapiens (Human))
experiment: Evaluation of human P2X3 receptor inhibitory activity (Test Example 1)
Format: cell-based
particulars: C6BU-1 cell transfected with human P2X3 receptor gene, FLIPR 384
Numbers only, as −log10 of the molar value.

Exercise: Would you mind telling me what pIC50 value was observed for Cc1ccc(Cn2c(=O)n([C@@H](C)[C@@H](C)C(=O)O)c(=O)[nH]/c2=N\c2ccc(Oc3ncc(C)s3)cc2)cc1 ?
Key: 8.10

Exercise: Next entry: CCc1[nH]c2ccc(/N=c3\[nH]c(=O)n([C@@H](C)[C@@H](C)C(=O)O)c(=O)n3Cc3ccc(Cl)cc3)cc2c1C
Key: 7.96

Exercise: Next entry: O=c1[nH]/c(=N\c2ccc(Oc3ncccc3F)cc2)n(Cc2ccc(Cl)cc2)c(=O)n1[C@H]1C[C@H](C(=O)O)C1
Key: 8.05

Exercise: Next entry: COC(=O)[C@@H](C)Cn1c(=O)[nH]/c(=N\c2ccc(Oc3ccc(C)nn3)c(F)c2)n(Cc2ccc(Cl)cc2)c1=O
Key: 8.00

Batch request: pIC50 for each of the following compounds.
1. Cc1ccc(Cn2c(=O)n([C@H](C)CC(=O)O)c(=O)[nH]/c2=N\c2ccc(Oc3ncccc3F)cc2)cc1
2. COc1cc(Oc2ccc(/N=c3\[nH]c(=O)n([C@@H](C)[C@@H](C)C(=O)O)c(=O)n3Cc3ccc(Cl)cc3)cc2)ccn1
3. CC(C)(Cn1c(=O)[nH]/c(=N\c2ccc(Oc3ncccc3C#N)cc2)n(Cc2ccc(Cl)cc2)c1=O)C(=O)O
4. COC(=O)C(C)(C)Cn1c(=O)[nH]/c(=N\c2ccc(Oc3ccc(F)cn3)cc2)n(Cc2ccc(Cl)cc2)c1=O
5. COC(=O)CCn1c(=O)[nH]/c(=N\c2ccc(Oc3ncccc3F)cc2)n(Cc2ccc(CF)cc2)c1=O

Key:
1. 7.92
2. 8.15
3. 7.52
4. 8.15
5. 7.92

Batch request: pIC50 for each of the following compounds.
1. CCn1c(=O)[nH]/c(=N\c2ccc(Oc3ncc(C(=O)O)cc3Cl)cc2)n(Cc2ccc(Cl)cc2)c1=O
2. COC(=O)C(C)(C)Cn1c(=O)[nH]/c(=N\c2ccc(N3CCOCC3)c(C)c2)n(Cc2ccc(Cl)cc2)c1=O
3. COc1cc(Oc2ccc(/N=c3\[nH]c(=O)n(CC(C)(C)C(=O)O)c(=O)n3Cc3ccc(Cl)cc3)cc2)cc(F)n1
4. COCc1cccc(Oc2ccc(/N=c3\[nH]c(=O)n(C[C@H](C)C(=O)OC)c(=O)n3Cc3ccc(Cl)cc3)cc2)n1
5. Cc1cc(/N=c2\[nH]c(=O)n(C[C@H](C)C(=O)O)c(=O)n2Cc2ccc(Cl)cc2)ccc1O[C@H](C)C(F)(F)F
6. COCc1cccc(Oc2ccc(/N=c3\[nH]c(=O)n(C[C@H](C)C(=O)O)c(=O)n3Cc3ccc(Cl)cc3)cc2)n1

Key:
[8.22, 7.00, 8.22, 7.44, 7.10, 7.74]
